tested-on: Ubiquitin carboxyl-terminal hydrolase 2 (Homo sapiens)
test-name: Confirmation Assay for Inhibitors of Ubiquitin-specific Protease USP2a Using CHOP2 as the Reporter; also: nearly all actives have a fitted effect of over 55% in size; also: potency is read from the fitted curve at half-maximal effect
test-context: USP2 core, Ub-CHOP2 coupled reporter fluorescence; series mostly up to 38.3 µM
Results filed as inconclusive are left out. The source made the active and inactive calls. Calls follow the shape of the dose curve; as a rule, active = well fitted inhibition curve with a large enough effect; inconclusive = small, poorly fitted or top-dose-only effect, or effect the other way; inactive = flat fitted curve, though single readings scatter.

{"columns": ["molecule", "Potency"],
 "data": [
  ["CCOC(=O)COc1c(OC)cc(Cl)cc1C1Nc2ccccc2C(=O)N1c1ccccc1 (configuration not stated)", "inactive"],
  ["COc1cc(C(O)P(=O)(OC(C)C)c2ccc(N(C)C)cc2)cc(OC)c1OC (configuration not stated)", "inactive"],
  ["O=C(C[n+]1ccc(-c2cc(C(=O)Nc3cccc(C(F)(F)F)c3)c3ccccc3n2)cc1)c1cccc([N+](=O)[O-])c1", "inactive"],
  ["COc1cc(C)ccc1OCCOc1cc(C)ccc1Cl", "inactive"],
  ["C=CCn1c(Br)nc2c1c(=O)n(C)c(=O)n2C", "inactive"],
  ["CCC(C)NC(=O)CSC1=Nc2ccccc2C2=NC(c3ccccc3)C(=O)N12 (configuration not stated)", "inactive"],
  ["CC[n+]1c(/C=C/N(C)c2ccccc2)n(-c2ccccc2)c2ccc(-c3nc4ccccc4s3)cc21", "13.1 µM (active)"],
  ["Cc1ccc(C(=O)NCCNS(=O)(=O)c2ccccc2)cc1", "inactive"],
  ["CSC1=NCCN1C(=O)Cc1ccc(F)cc1", "inactive"],
  ["Cc1nc2ccccc2c2oc(C(=O)NCCN3CCN(C)CC3)cc12", "inactive"],
  ["C[C@H](CO)N1C[C@H](C)[C@@H](CN(C)S(=O)(=O)c2ccc(Cl)cc2)Oc2ccc(NS(=O)(=O)c3ccccc3)cc2CC1=O", "inactive"],
  ["COCCCNC(=O)C1CCN(c2nc(C)cc(C)n2)CC1", "inactive"],
  ["O=C(COc1ccccc1)NCCSc1ccccc1", "inactive"],
  ["N#CC(c1ccccc1)c1ccc(C(=O)c2ccc(F)cc2)cc1 (configuration not stated)", "inactive"],
  ["O=C(OCC1OC(n2ncc(=O)[nH]c2=O)C(OC(=O)c2ccccc2)C1OC(=O)c1ccccc1)c1ccccc1 (configuration not stated)", "13.1 µM (active)"],
  ["O=C(N/C(=C/c1cccnc1)C(=O)N1CCOCC1)c1ccco1", "inactive"],
  ["O=C(O[C@@H]1OC2COC(=O)c3cc(O)c(O)c(O)c3-c3c(cc(O)c(O)c3O)C(=O)O[C@@H]([C@H]1O)[C@@H]2O)c1cc(O)c(O)c(O)c1", "16.5 µM (active)"],
  ["CCC1=[N+](CC(=O)c2ccc(Br)cc2)CCn2c(C)ccc21", "inactive"],
  ["Cc1ccc(CNC(=O)CCNS(=O)(=O)c2ccc(C)cc2)cc1", "inactive"],
  ["CCCCCCCCCCOC(=O)Cn1c(COc2ccc(Cl)cc2)[n+](C)c2ccccc21", "18.5 µM (active)"],
  ["COC(=O)c1cc2sc(Cl)cc2n1Cc1nc(-c2ccccc2)oc1C", "inactive"],
  ["CCOc1ccc2[nH]c(=O)c(CN(CCc3ccccc3)C(=O)c3cnccn3)cc2c1", "inactive"],
  ["CC1(C)CC(=O)C2=C(C1)Oc1ncn(CCCO)c(=N)c1C2c1ccccc1 (configuration not stated)", "inactive"],
  ["C=C(C)COc1ccc(-c2[nH]ncc2Oc2ccccc2OCC)c(O)c1", "inactive"],
  ["COc1ccc(O)c(-c2cc(-c3ccc(F)cc3)n[nH]2)c1", "inactive"],
  ["COc1ccc2cc(CN(C(=O)Nc3ccccc3)C3CCCC3)c(=O)[nH]c2c1", "inactive"],
  ["Cc1c(N=C/C=C2\\N(C)c3ccccc3C2(C)C)c(=O)n(-c2ccccc2)n1C", "inactive"],
  ["COc1ccc(CCNC(=O)Cc2cc(=O)[nH]c(=O)[nH]2)cc1OC", "inactive"],
  ["CCOc1cc(/C=C/c2nc3cc(C)c(C)cc3s2)ccc1OCC(=O)N1CCOCC1", "inactive"],
  ["Cc1ccc(/C(O)=C/C(=O)C(=O)NNC(=O)C(O)(c2ccccc2)c2ccccc2)cc1", "14.7 µM (active)"],
  ["CCC(C(=O)NCc1ccccc1OC)n1nc(C)n2c(cc3occc32)c1=O (configuration not stated)", "inactive"],
  ["CC(C)c1ccc2c(c1)c(SC(C)(C)C)c(CC(C)(C)C(=O)O)n2Cc1ccc(Cl)cc1", "6.56 µM (active)"],
  ["O=C(O)c1cc(N2N=C(C(F)(F)F)/C(=C/C=C/c3ccco3)C2=O)ccc1Cl", "5.85 µM (active)"],
  ["O=C(Nc1ccc2c(c1)OCO2)NC1(C(F)(F)F)Oc2ccccc2O1", "inactive"],
  ["COC(=O)CC1Oc2ccc(C)cc2NC1=O (configuration not stated)", "inactive"],
  ["NC(=O)C[C@@H]1N[C@]2(C(=O)Nc3ccccc32)[C@@H]2C(=O)N(c3cc(C(F)(F)F)ccc3Cl)C(=O)[C@H]12", "inactive"],
  ["COc1cc(C(=O)OC2CCCCC2=O)cc(OC)c1C (configuration not stated)", "11.7 µM (active)"],
  ["Cc1cc(C)n2cc(CSc3nnnn3-c3ccccc3C)nc2n1", "inactive"],
  ["Cc1cccc(NCc2nc(-c3ccccc3)no2)c1", "inactive"],
  ["CCOC(=O)c1ccc(NC(=O)C2=C(C)Nc3nc(CCCO)nn3C2c2cccc(C)c2)cc1 (configuration not stated)", "inactive"],
  ["CC(C)n1nc(C(=O)Nc2ccccc2N2CCOCC2)c2ccccc2c1=O", "inactive"],
  ["c1ccc(Nc2c3c(nc4ncnn24)CCC3)cc1", "inactive"]
]}
